- System: LXRb homodimer (NR concentration 270 nM)
- Protocol summary: PBM binding z-score (relative to random genomic background probes); higher = stronger binding; sequences stand for … in GC…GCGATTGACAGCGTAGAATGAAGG
Categories are assigned from the measured PBM binding z-score using these intervals: band 1 (below 0.2), band 2 (0.2 to below 1), band 3 (1 or more)

INSERT INTO assay_data (query_sequence, answer_label) VALUES
  ('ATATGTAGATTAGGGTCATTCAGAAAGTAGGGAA', 'band 3'),
  ('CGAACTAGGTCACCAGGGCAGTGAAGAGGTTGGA', 'band 1'),
  ('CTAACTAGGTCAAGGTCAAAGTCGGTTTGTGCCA', 'band 3'),
  ('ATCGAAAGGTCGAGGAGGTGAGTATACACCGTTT', 'band 2'),
  ('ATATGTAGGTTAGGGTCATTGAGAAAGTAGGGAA', 'band 3'),
  ('ATATGTAGGTGAAGGGTCATTCAGGTTGGTTCGC', 'band 3'),
  ('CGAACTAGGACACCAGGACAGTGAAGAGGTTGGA', 'band 1'),
  ('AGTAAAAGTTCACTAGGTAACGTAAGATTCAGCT', 'band 3'),
  ('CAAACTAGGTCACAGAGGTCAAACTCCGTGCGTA', 'band 3'),
  ('CGAACTAGCTCACCAGGACAGTGAAGAGGTTGGA', 'band 1'),
  ('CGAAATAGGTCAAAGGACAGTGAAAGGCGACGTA', 'band 2');

---

Each item that follows carries a reported PBM binding z-score.
- Tested on: THRa homodimer (NR concentration 90 nM)
- Protocol summary: PBM binding z-score (relative to random genomic background probes); higher = stronger binding; sequences stand for … in GC…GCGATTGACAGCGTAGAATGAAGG
Parameter: PBM binding z-score

INSERT INTO assay_data (query_sequence, tested_system, measurement) VALUES
  ('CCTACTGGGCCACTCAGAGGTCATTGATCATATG', 'THRa homodimer (NR concentration 90 nM)', 1.71),
  ('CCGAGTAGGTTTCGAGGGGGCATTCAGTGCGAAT', 'THRa homodimer (NR concentration 90 nM)', 0.874),
  ('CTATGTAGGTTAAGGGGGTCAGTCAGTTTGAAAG', 'THRa homodimer (NR concentration 90 nM)', 1.89),
  ('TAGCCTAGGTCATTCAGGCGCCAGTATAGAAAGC', 'THRa homodimer (NR concentration 90 nM)', 0.451),
  ('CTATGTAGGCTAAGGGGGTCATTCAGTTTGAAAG', 'THRa homodimer (NR concentration 90 nM)', 1.51),
  ('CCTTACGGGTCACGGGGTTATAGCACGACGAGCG', 'THRa homodimer (NR concentration 90 nM)', 0.91),
  ('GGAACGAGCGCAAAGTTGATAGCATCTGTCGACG', 'THRa homodimer (NR concentration 90 nM)', -1.24),
  ('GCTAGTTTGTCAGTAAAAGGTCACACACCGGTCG', 'THRa homodimer (NR concentration 90 nM)', 1.61),
  ('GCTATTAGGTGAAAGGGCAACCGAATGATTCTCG', 'THRa homodimer (NR concentration 90 nM)', 0.498),
  ('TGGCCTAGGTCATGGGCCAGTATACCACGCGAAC', 'THRa homodimer (NR concentration 90 nM)', 0.639),
  ('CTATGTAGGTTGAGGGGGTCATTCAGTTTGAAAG', 'THRa homodimer (NR concentration 90 nM)', 3.08),
  ('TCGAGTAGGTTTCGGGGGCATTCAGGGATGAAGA', 'THRa homodimer (NR concentration 90 nM)', 1.69),
  ('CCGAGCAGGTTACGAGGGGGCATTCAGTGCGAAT', 'THRa homodimer (NR concentration 90 nM)', 0.885),
  ('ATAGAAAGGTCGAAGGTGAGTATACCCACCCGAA', 'THRa homodimer (NR concentration 90 nM)', 0.0452),
  ('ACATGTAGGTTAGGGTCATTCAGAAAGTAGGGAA', 'THRa homodimer (NR concentration 90 nM)', 3.66),
  ('ATCAAAAGGTCGAAGGTGAGTATACCCACCCGAA', 'THRa homodimer (NR concentration 90 nM)', -0.268),
  ('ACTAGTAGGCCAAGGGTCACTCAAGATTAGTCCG', 'THRa homodimer (NR concentration 90 nM)', 0.197),
  ('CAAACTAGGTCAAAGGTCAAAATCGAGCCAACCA', 'THRa homodimer (NR concentration 90 nM)', 1.51),
  ('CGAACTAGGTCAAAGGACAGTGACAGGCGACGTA', 'THRa homodimer (NR concentration 90 nM)', 0.589),
  ('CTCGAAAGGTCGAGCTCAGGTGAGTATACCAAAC', 'THRa homodimer (NR concentration 90 nM)', 0.791),
  ('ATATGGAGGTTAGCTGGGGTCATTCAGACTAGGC', 'THRa homodimer (NR concentration 90 nM)', 3.66),
  ('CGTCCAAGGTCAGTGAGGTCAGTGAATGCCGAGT', 'THRa homodimer (NR concentration 90 nM)', 4.36),
  ('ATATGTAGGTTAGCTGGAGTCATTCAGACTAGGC', 'THRa homodimer (NR concentration 90 nM)', -0.355),
  ('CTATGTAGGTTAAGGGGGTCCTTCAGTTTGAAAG', 'THRa homodimer (NR concentration 90 nM)', 0.899),
  ('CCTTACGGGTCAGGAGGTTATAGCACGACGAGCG', 'THRa homodimer (NR concentration 90 nM)', 0.0139),
  ('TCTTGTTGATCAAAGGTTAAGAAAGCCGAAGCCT', 'THRa homodimer (NR concentration 90 nM)', -0.291);

---

- Tested on: PPARg:RXRa DBDmut IVT, anti-RXR (DBD mutation: RXRa K156A/R161A, NR concentration 270 nM, RXRa partner concentration 90 nM)
- Protocol summary: PBM binding z-score (relative to random genomic background probes); higher = stronger binding; sequences stand for … in GC…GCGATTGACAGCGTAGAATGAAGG
// condition not met strictly below 6 in PBM binding z-score; condition met otherwise

INSERT INTO results (query_sequence, answer_label) VALUES
  ('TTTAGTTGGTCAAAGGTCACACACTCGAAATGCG', 'condition not met'),
  ('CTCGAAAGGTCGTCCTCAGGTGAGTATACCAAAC', 'condition not met'),
  ('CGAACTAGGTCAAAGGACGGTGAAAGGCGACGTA', 'condition met'),
  ('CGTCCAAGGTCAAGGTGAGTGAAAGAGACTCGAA', 'condition not met'),
  ('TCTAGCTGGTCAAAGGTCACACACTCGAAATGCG', 'condition not met'),
  ('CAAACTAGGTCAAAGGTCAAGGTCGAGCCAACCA', 'condition met'),
  ('CGAACTCGGTCAAAGGACAGTGAAAGGCGACGTA', 'condition not met'),
  ('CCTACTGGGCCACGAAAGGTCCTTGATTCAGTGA', 'condition not met'),
  ('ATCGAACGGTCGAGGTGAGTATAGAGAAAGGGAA', 'condition not met'),
  ('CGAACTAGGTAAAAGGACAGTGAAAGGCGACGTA', 'condition not met'),
  ('CTATGTAGGTTAAGGGGGTCACTCAGTTTGAAAG', 'condition met');

---

- Test system: VDR:RXRa (NR concentration 270 nM, RXRa partner concentration 90 nM)
- Protocol summary: PBM binding z-score (relative to random genomic background probes); higher = stronger binding; sequences stand for … in GC…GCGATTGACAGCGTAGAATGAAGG
Parameter: PBM binding z-score

INSERT INTO measurements (query_sequence, tested_system, parameter, measurement) VALUES
  ('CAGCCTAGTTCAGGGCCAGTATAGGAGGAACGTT', 'VDR:RXRa (NR concentration 270 nM, RXRa partner concentration 90 nM)', 'PBM binding z-score', -0.0838),
  ('CGAACTAGGTCACCAGGAAAGTGAAGAGGTTGGA', 'VDR:RXRa (NR concentration 270 nM, RXRa partner concentration 90 nM)', 'PBM binding z-score', 1.66),
  ('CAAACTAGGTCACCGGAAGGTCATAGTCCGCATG', 'VDR:RXRa (NR concentration 270 nM, RXRa partner concentration 90 nM)', 'PBM binding z-score', 5.66),
  ('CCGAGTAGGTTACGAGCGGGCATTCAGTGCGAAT', 'VDR:RXRa (NR concentration 270 nM, RXRa partner concentration 90 nM)', 'PBM binding z-score', 0.355),
  ('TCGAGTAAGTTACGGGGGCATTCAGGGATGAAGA', 'VDR:RXRa (NR concentration 270 nM, RXRa partner concentration 90 nM)', 'PBM binding z-score', 3.01),
  ('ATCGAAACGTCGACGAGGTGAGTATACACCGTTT', 'VDR:RXRa (NR concentration 270 nM, RXRa partner concentration 90 nM)', 'PBM binding z-score', -0.119);
